Target: CK1ϵ (Homo sapiens (Human), UniProt P49674)
Sequence (P49674 whole entry): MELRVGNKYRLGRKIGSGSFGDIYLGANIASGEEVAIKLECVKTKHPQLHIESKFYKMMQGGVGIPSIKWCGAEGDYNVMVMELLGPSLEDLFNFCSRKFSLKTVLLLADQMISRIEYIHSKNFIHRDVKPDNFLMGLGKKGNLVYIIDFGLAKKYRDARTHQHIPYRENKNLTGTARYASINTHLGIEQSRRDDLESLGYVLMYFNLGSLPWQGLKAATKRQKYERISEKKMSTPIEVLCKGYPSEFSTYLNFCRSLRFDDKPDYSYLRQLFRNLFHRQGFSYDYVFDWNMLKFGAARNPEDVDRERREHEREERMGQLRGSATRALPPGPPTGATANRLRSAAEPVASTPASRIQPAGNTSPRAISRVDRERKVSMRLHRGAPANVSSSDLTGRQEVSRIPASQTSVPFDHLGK
Experiment: LanthaScreen Eu kinase binding assay, CK1ϵ
Details: Table 3; read-out: IC50 Ck1ε
endpoint: pIC50
To interpret pIC50, take it as minus log10 of a concentration measured in moles per litre.

Illustrative cases are given below, each with its answer.
[
  {
    "molecule": "Cc1cccc(-c2nc(-c3ccc(C(=O)O)cc3)[nH]c2-c2ccncc2)c1 [IM-38]",
    "recorded_value": 5.97
  },
  {
    "molecule": "Cc1cccc(-c2nc(-c3ccc([S+](C)[O-])cc3)[nH]c2C2=CCOCC2)c1 (stereo not drawn) [IM-16]",
    "recorded_value": 5.25
  },
  {
    "molecule": "Fc1ccc(-c2nc(-c3c(F)cccc3F)[nH]c2C2=CCOCC2)cc1 [IM-23]",
    "recorded_value": 6.12
  },
  {
    "molecule": "Fc1ccc(-c2nc(-c3ccccc3F)[nH]c2C2=CCOCC2)cc1 [IM-20]",
    "recorded_value": 5.94
  },
  {
    "molecule": "Cc1cccc(-c2nc(-c3c(F)cccc3F)[nH]c2-c2ccncc2)c1 [IM-26]",
    "recorded_value": 7.36
  },
  {
    "molecule": "Fc1ccc(-c2nc(-c3ccccc3F)[nH]c2-c2ccncc2)cc1 [IM-30]",
    "recorded_value": 7.49
  },
  {
    "molecule": "Cc1cccc(-c2nc(-c3ccc(C(=N)NO)cc3)[nH]c2-c2ccncc2)c1 [IM-37]",
    "recorded_value": 6.53
  },
  {
    "molecule": "Cc1cccc(-c2nc(-c3ccc4ccccc4c3F)[nH]c2-c2ccncc2)c1 [IM-04]",
    "recorded_value": 6.56
  }
]

# ---- query molecule ----
Inquiry: Answer with the recorded pIC50 of CCc1nc(-c2cccc(C)c2)c(-c2ccnc(NC(=O)c3ccccc3)c2)s1 [TAK 715, reference compound] only.
Reply text: 6.97

* * *

Biological target: CK1ϵ (Homo sapiens (Human), UniProt P49674)
Test: LanthaScreen Eu kinase binding assay, CK1ϵ
Details: read-out: CK1ϵ IC50 ± SEM
pIC50: −log10 of the molar value.
# pIC50 >= 7 gives Fulfilled, anything below gives Not fulfilled

[
  {
    "compound": "Cc1cccc(-c2nc(-c3ccc([S+](C)[O-])cc3)[nH]c2C2=CCOCC2)c1 (centres unmarked)",
    "system_name": "CK1ϵ (Homo sapiens (Human), UniProt P49674)",
    "label_value": "Not fulfilled"
  }
]

Inquiry: Hi team, for Fc1ccc(-c2nc(-c3ccccc3F)[nH]c2-c2ccncc2)cc1 , is the recorded pIC50 at or above 7?
Reply text: Fulfilled

Inquiry: Please check the record Cc1cccc(-c2nc(-c3ccc(C(=N)NO)cc3)[nH]c2-c2ccncc2)c1 and state if its pIC50 is at or above 7.
Reply text: Not fulfilled

Inquiry: Confirm if pIC50 reported for the compound Fc1ccc(-c2nc(-c3c(F)cccc3F)[nH]c2C2=CCOCC2)cc1 is 7 or above.
Reply text: Not fulfilled

Inquiry: Reported pIC50 reaches at least 7 for Cc1cccc(-c2nc(-c3ccc(O)cc3)[nH]c2-c2ccncc2)c1 ?
Reply text: Not fulfilled

Inquiry: I'd appreciate it if you could say whether Cc1cccc(-c2nc(-c3c(F)cccc3F)[nH]c2-c2ccncc2)c1 has pIC50 at least equal to 7.
Reply text: Fulfilled

* * *

Molecular target: CK1ϵ (Homo sapiens (Human), UniProt P49674)
Experiment: LanthaScreen Eu kinase binding assay, CK1ϵ
Details: at 1 μM
endpoint: CK1ϵ inhibition at 1 μM

[
  {
    "compound_string": "Fc1ccc(-c2nc(-c3ccc4ccccc4c3F)[nH]c2C2=CCOCC2)cc1",
    "endpoint": "CK1ϵ inhibition at 1 μM",
    "recorded_value": "No inhibition at 1 μM"
  },
  {
    "compound_string": "Oc1ccc(-c2nc(-c3ccc(F)cc3)c(C3=CCOCC3)[nH]2)cc1",
    "endpoint": "CK1ϵ inhibition at 1 μM",
    "recorded_value": "No inhibition at 1 μM"
  },
  {
    "compound_string": "Cc1cccc(-c2nc(-c3ccc([N+](=O)[O-])cc3)[nH]c2C2=CCOCC2)c1",
    "endpoint": "CK1ϵ inhibition at 1 μM",
    "recorded_value": "No inhibition at 1 μM"
  },
  {
    "compound_string": "Cc1cccc(-c2nc(-c3ccc(O)cc3)[nH]c2C2=CCOCC2)c1",
    "endpoint": "CK1ϵ inhibition at 1 μM",
    "recorded_value": "No inhibition at 1 μM"
  }
]

As a next step, examine the molecule that follows.
Inquiry: Quick one: give measured CK1ϵ inhibition at 1 μM for Cc1cccc(-c2nc(-c3ccc4ccccc4c3F)[nH]c2C2=CCOCC2)c1
Reply text: No inhibition at 1 μM

* * *

System: hESC3 Nkx2.5eGFP/w cells
Experiment: Differentiation in 96-U bottom ultra-low attachment well plates, GFP area imaging
Assay type: cell-based, human
Conditions: Induction Day 3; 5 μM; day 14
Property: Average GFP μm^2; scope: individual compounds
A number alone suffices; assume μm^2.

[
  {
    "compound": "COc1cccc(F)c1-c1nc(-c2ccc(F)cc2)c(-c2ccncc2)[nH]1 [ZQX-20]",
    "recorded_value": 331.1
  },
  {
    "compound": "COc1cccc(OC)c1-c1nc(-c2ccc(F)cc2)c(-c2ccncc2)[nH]1 [ZQX-18]",
    "recorded_value": 143.4
  },
  {
    "compound": "COc1cc(O)c(-c2nc(-c3ccc(F)cc3)c(-c3ccncc3)[nH]2)c(OC)c1 [ZQX-26]",
    "recorded_value": 88.2
  },
  {
    "compound": "Fc1ccc(-c2nc(-c3c(F)cccc3Cl)[nH]c2-c2ccncc2)cc1 [ZQX-19]",
    "recorded_value": 511.6
  },
  {
    "compound": "O=[N+]([O-])c1ccccc1-c1nc(-c2ccc(F)cc2)c(-c2ccncc2)[nH]1 [ZQX-27]",
    "recorded_value": 57.9
  },
  {
    "compound": "Fc1ccc(-c2nc(-c3c(Cl)cccc3Cl)[nH]c2-c2ccncc2)cc1 [ZQX-15]",
    "recorded_value": 0.0
  },
  {
    "compound": "C[S+]([O-])c1ccc(-c2nc(-c3ccc(F)cc3)c(-c3ccncc3)[nH]2)cc1 (stereo not drawn) [SB203580, reference compound]",
    "recorded_value": 40.2
  },
  {
    "compound": "COc1ccccc1-c1nc(-c2ccc(F)cc2)c(-c2ccncc2)[nH]1 [ZQX-16]",
    "recorded_value": 125.6
  }
]

Inquiry: Give me measured Average GFP μm^2, please, for this compound: Cc1ccc2nc(NC(=O)CSc3nc4c(c(=O)n3-c3ccccc3)SCC4)sc2c1 [IWP-2, reference compound]
Reply text: 216.9

Inquiry: // Input: Fc1ccc(-c2nc(-c3c(F)cccc3Br)[nH]c2-c2ccncc2)cc1 [ZQX-21] . Output its Average GFP μm^2 only.
Reply text: 16.9

Inquiry: Read the entry COc1ccc([N+](=O)[O-])cc1-c1nc(-c2ccc(F)cc2)c(-c2ccncc2)[nH]1 [ZQX-32] and write its reported Average GFP μm^2.
Reply text: 41.0

Inquiry: Using known records, supply Average GFP μm^2 for Fc1ccc(-c2nc(-c3ccccc3F)[nH]c2-c2ccncc2)cc1 [IM-30]
Reply text: 354.1

Inquiry: State its Average GFP μm^2 for this compound: Cc1cccc(C)c1-c1nc(-c2ccc(F)cc2)c(-c2ccncc2)[nH]1 [ZQX-28]
Reply text: 6.1

Inquiry: Note Average GFP μm^2 for the compound shown: Fc1ccc(-c2nc(-c3ccccc3Cl)[nH]c2-c2ccncc2)cc1 [ZQX-17]
Reply text: 232.7

Inquiry: Item Fc1ccc(-c2nc(-c3ccccc3)[nH]c2-c2ccncc2)cc1 [ZQX-14] : provide Average GFP μm^2
Reply text: 91.6

Inquiry: Input Fc1ccc(-c2nc(-c3c(F)cccc3I)[nH]c2-c2ccncc2)cc1 [ZQX-30] , output reported Average GFP μm^2.
Reply text: 128.3

Inquiry: Look up and state reported Average GFP μm^2 for Fc1ccc(-c2nc(-c3c(F)cccc3F)[nH]c2-c2ccncc2)cc1 [IM-31]
Reply text: 476.6

Inquiry: Give a short answer stating reported Average GFP μm^2 for Fc1ccc(-c2nc(-c3ccccc3Br)[nH]c2-c2ccncc2)cc1 [ZQX-22] .
Reply text: 284.4

* * *

Target: p38α MAPK (Homo sapiens (Human), UniProt Q16539)
Sequence (Q16539 whole entry, looked up): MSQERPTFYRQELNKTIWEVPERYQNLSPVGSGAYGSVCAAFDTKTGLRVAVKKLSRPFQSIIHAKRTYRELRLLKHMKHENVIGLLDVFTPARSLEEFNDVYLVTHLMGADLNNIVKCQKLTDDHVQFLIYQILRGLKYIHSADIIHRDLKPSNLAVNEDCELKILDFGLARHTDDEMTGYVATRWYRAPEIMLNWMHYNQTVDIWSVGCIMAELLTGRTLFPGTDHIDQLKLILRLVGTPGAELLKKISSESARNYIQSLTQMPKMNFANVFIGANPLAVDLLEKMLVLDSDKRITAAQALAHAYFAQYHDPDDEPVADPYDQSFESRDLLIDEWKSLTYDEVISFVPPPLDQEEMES
Assay: HitHunter p38 MAP kinase binding assay
Settings: read-out: p38α MAPK IC50 ± SEM
Response field label: string, one of label 1 (IC50 strictly below 300 nM) or label 0.

For orientation, consider the following solved cases.
[
  {
    "compound": "Cc1cccc(-c2nc(-c3ccccc3Br)[nH]c2C2=CCOCC2)c1",
    "label_value": "label 1"
  },
  {
    "compound": "Cc1cccc(-c2nc(-c3ccc4ccccc4c3F)[nH]c2C2=CCOCC2)c1",
    "label_value": "label 1"
  },
  {
    "compound": "Fc1ccc(-c2nc(-c3ccc4ccccc4c3F)[nH]c2-c2ccncc2)cc1",
    "label_value": "label 1"
  }
]

Inquiry: Item Cc1cccc(-c2nc(-c3ccc([N+](=O)[O-])cc3)[nH]c2C2=CCOCC2)c1 : IC50 beneath 300 nM, strictly?
Reply text: label 1

Inquiry: hey, is IC50 for COc1ccc2cc(-c3nc(-c4cccc(C)c4)c(C4=CCOCC4)[nH]3)ccc2c1 lower than 300 nM or not?
Reply text: label 0

Inquiry: A record lists Cc1cccc(-c2nc(-c3ccc([S+](C)[O-])cc3)[nH]c2-c2ccncc2)c1 (stereo not drawn) . Is its IC50 below 300 nM?
Reply text: label 1

Inquiry: Check if IC50 falls below 300 nM for Fc1ccc(-c2nc(-c3c(F)cccc3F)[nH]c2C2=CCOCC2)cc1 .
Reply text: label 1

Inquiry: Does the reported IC50 of the following compound sit strictly below 300 nM? C[S+]([O-])c1ccc(-c2nc(-c3ccc(F)cc3)c(-c3ccncc3)o2)cc1 (stereo not drawn)
Reply text: label 0

Inquiry: Threshold test, IC50 < 300 nM: Cc1cccc(-c2nc(-c3ccccc3)[nH]c2C2=CCOCC2)c1
Reply text: label 0
